meta.source: patent EP0694535A1

- system-under-test: NK-1 receptor (Homo sapiens)
- Construct: an aliquot of IM9 cells; endogenous in cells; host or cells: IM9 cells (whole cells)
- Sequence (P25103 whole entry): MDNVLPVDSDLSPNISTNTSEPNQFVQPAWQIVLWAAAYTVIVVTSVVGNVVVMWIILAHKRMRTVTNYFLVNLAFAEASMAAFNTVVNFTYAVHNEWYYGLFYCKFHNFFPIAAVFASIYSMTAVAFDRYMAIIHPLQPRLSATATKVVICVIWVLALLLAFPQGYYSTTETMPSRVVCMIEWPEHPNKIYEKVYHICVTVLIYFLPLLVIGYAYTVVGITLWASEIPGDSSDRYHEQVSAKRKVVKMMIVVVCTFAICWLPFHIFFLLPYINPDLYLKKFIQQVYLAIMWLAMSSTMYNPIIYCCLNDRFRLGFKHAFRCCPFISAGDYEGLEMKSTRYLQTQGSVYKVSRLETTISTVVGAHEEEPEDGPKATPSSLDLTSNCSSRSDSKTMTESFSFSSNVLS
- assay-summary: NK-1 Receptor Binding Assay (competition with labeled substance P on IM9 cells)
- condition: @ 20μM, inhibition of substance P binding to the NK-1 receptor, read-out: Percent Inhibition
Where a name gives a salt, the structure may show the parent alone.
parameter-measured: inhibition at 20 µM (%)

P = Cc1ccccc1-c1nc2ccccc2n1-c1ccccc1
Q = c1ccc(-n2c(C3CCCCC3)nc3ccccc32)cc1
Hi there, can you help? I need to know whether P or Q has lower measured inhibition at 20 µM. Select an item and report its label.
Q

I = Clc1ccccc1-c1nc2ccccc2n1-c1ccccc1
II = c1ccc(-c2nc3ccccc3n2-c2ccccc2)cc1
Hi there, can you help? I need to know whether I or II has lower measured inhibition at 20 µM. Select an item and report its label.
II

A = Clc1ccc(-n2c(-c3ccccc3)nc3ccccc32)cc1
B = CCCCCc1nc2ccccc2n1-c1ccccc1 [Example 35, hydrochloride]
C = Clc1ccc(-c2nc3ccccc3n2-c2ccc(Cl)cc2)cc1
D = c1ccc(Cc2nc3ccccc3n2-c2ccccc2)cc1
Exam item: list the entries in increasing order of inhibition at 20 µM. List labels; respect the requested ordering.
A, C, D, B
